// data source = patent US20250304563A1

assayed.target: Cbl-b (36-427 aa truncated form, N-terminus Avi-tag) (Homo sapiens (Human))
Sequence (Q13191 36-427): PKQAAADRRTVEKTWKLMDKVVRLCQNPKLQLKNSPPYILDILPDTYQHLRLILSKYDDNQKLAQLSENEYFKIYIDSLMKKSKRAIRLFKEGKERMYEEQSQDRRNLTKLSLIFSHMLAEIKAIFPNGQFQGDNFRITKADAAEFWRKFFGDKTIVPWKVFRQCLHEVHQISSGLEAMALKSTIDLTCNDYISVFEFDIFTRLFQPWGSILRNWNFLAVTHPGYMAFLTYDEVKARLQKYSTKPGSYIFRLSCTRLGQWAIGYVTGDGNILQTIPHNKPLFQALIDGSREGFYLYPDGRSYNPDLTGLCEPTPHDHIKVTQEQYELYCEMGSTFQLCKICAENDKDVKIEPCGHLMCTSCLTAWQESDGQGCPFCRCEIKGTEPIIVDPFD
measurement.notes: Cbl-b binding: TR-FRET displacement of BODIPY-FL probe
pIC50: −log10 of the molar value.
# pIC50 listing for each entry below

Answered cases to consult:
CCSc1cc(C(CO)(CCl)Cc2nncn2C)cc(N2Cc3c(cc(CN4CCC[C@H](C)C4)cc3C(F)(F)F)C2=O)n1 (some centres unmarked) ... 6.00 to 7.00
CSc1cc(C(CO)N2CCC[C@H](C)C2)cc2c1CN(c1cccc([C@]3(c4nncn4C)C[C@H](C)C3)c1)C2=O (some centres unmarked) ... 8.30 to 9.00
CCNc1cc(C2(Cc3nncn3C)COC2)cc(N2Cc3c(cc(CN4CCC[C@H](C)C4)cc3[S+](C)[O-])C2=O)n1 (some centres unmarked) ... 6.00 to 7.00
Cn1cnnc1CC1(c2cc(NCCC#N)nc(N3Cc4c(cc(CN5CCc6ccc(O)cc6C5)cc4C(F)(F)F)C3=O)c2)COC1 ... 7.70 to 8.30
CCNc1cc(C2(Cc3nncn3C)COC2)cc(N2Cc3c(SC)cc(CN4CCCCC4)cc3C2=O)n1 ... 8.30 to 9.00
C[C@H]1CCCN(Cc2cc3c(c(C(F)(F)F)c2)CN(c2cc(C4(Cc5nncn5C)COC4)cc(NC4CC(C#N)C4)n2)C3=O)C1.O=C(O)C(F)(F)F (some centres unmarked) ... 7.70 to 8.30
CCSc1cc(C2(Cc3nncn3C)COC2)cc(N2Cc3c(cc(CN4CCC[C@H](C)C4)cc3-c3nnn[nH]3)C2=O)n1 ... 7.70 to 8.30
Cn1cnnc1CC1(c2cc(NCCC#N)nc(N3Cc4c(cc(CN5CCC6CC(O)CCC6C5)cc4C(F)(F)F)C3=O)c2)COC1 (centres unmarked) ... 6.00 to 7.00

Just so you know, measured pIC50 for C[C@H]1CCCN(Cc2cc3c(c(C(F)(F)F)c2)CN(c2cc(C4(Cc5nncn5C)COC4)cc(C#N)n2)C3=O)C1 came out at 6.00 to 7.00

Just so you know, measured pIC50 for C#CCCS(=O)(=O)N1CCN(c2cc(C3(Cc4nncn4C)COC3)cc(N3Cc4c(cc(CN5CCC[C@H](C)C5)cc4C(F)(F)F)C3=O)n2)CC1 came out at 7.70 to 8.30

Just so you know, measured pIC50 for CSCCNc1cc(C2(Cc3nncn3C)COC2)cc(N2Cc3c(cc(CN4CCC[C@H](C)C4)cc3C(F)(F)F)C2=O)n1 came out at 7.70 to 8.30

Just so you know, measured pIC50 for C[C@H]1CCCN(Cc2cc3c(c(C(F)(F)F)c2)CN(c2cc(C4(Cc5nncn5C)COC4)cc(SCCO)n2)C3=O)C1 came out at 7.70 to 8.30

Just so you know, measured pIC50 for Cn1cnnc1CC1(c2cc(NCCC#N)nc(N3Cc4c(cc(CN5CCCC6OCCC65)cc4C(F)(F)F)C3=O)c2)COC1 (centres unmarked) came out at 7.70 to 8.30

Just so you know, measured pIC50 for CCNc1cc(C2(Cc3nncn3C)COC2)cc(N2Cc3c(cc(CN4CCC(CSC)CC4)cc3C(F)(F)F)C2=O)n1 came out at 6.00 to 7.00
